Target: human TRPM8 (Homo sapiens, UniProt Q7Z2W7)
Construct: expressed in transfected cells; host or cells: Chinese hamster ovary (CHO) cells, T-REx tetracycline-inducible expression system (Invitrogen); co-transfected with pcDNA3.1 aequorin
Sequence (Q7Z2W7 whole entry): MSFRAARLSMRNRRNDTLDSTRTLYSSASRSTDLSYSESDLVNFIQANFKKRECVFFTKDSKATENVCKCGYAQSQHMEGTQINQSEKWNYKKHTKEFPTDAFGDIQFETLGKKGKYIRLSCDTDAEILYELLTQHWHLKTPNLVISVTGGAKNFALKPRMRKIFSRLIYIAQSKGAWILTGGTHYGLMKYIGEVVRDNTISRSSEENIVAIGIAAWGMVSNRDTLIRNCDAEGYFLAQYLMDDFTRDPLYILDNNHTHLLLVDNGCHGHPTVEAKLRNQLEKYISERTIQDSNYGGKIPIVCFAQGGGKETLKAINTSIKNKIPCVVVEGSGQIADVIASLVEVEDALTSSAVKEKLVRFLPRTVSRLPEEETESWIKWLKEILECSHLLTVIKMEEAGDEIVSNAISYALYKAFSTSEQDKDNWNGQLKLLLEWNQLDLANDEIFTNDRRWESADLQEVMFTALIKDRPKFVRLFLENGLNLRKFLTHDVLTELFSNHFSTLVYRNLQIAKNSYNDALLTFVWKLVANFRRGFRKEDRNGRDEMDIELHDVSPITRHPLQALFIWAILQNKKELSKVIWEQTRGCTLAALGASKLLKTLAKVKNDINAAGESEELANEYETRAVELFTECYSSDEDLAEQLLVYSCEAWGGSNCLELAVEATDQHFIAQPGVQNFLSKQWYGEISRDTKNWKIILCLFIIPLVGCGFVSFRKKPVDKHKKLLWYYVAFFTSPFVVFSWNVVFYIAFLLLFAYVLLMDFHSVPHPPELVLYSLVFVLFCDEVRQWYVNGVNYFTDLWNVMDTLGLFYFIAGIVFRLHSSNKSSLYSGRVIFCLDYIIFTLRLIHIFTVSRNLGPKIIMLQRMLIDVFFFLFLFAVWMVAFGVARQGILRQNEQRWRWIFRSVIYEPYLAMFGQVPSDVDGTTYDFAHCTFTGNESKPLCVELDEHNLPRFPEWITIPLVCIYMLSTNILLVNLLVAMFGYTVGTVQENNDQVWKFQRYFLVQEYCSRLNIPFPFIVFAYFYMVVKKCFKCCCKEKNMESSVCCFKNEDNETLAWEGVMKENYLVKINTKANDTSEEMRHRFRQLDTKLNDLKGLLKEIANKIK
Experiment: Luminescence readout assay for measuring intracellular calcium (aequorin, CHO cells expressing human TRPM8; icilin, L-menthol or cold activation)
Assay type: cell-based
Details: CHO cells expressing human TRPM8, icilin activation (1 μM), aequorin luminescence; read-out: hTRPM8 IC50
Method: Luminescence Readout Assay for Measuring Intracellular Calcium A stable Chinese hamster ovary cell line expressing human TRPM8 was generated using tetracycline inducible T-REx™ expression system from Invitrogen, Inc. (Carlsbad, Calif.). […] Twenty four hours before the assay, cells were seeded in 96-well plates and TRPM8 expression was induced with 0.5 μg/ml tetracycline. On the day of the assay, culture media was removed and cells were incubated with assay buffer […]
Counter-ions that a name gives are not always drawn.
readout.label: pIC50
Give only the number. pIC50 is defined as minus log10 of concentration in molar units.

>  <compound>
COc1ccc(C(=O)N[C@]2(c3ccc(C(F)(F)F)cc3)CCOc3cccnc32)nn1 [Example 47]

>  <endpoint.value>
7.09

$$$$

Give pIC50 for O=C(N[C@]1(c2ccc(C(F)(F)F)cc2)CCOc2cccnc21)c1cccnc1 [Example 48]
6.32

Give pIC50 for O=C(N[C@]1(c2ccc(OC(F)(F)F)cc2)CCOc2cccnc21)c1ncc[nH]1 [Example 210, formate]
5.64

Give pIC50 for COC(=O)c1ccc(C(=O)N[C@]2(c3ccc(OC(F)(F)F)cc3)CCOc3cccnc32)nc1 [Example 176]
7.27

Give pIC50 for O=C(N[C@]1(c2ccc(OC(F)(F)F)cc2)CCOc2cccnc21)c1ccc(-c2cnco2)cc1 [Example 273, formate]
7.72

---

molecular target: human TRPM8 (Homo sapiens, UniProt Q7Z2W7); construct: expressed in transfected cells; host or cells: Chinese hamster ovary (CHO) cells, T-REx tetracycline-inducible expression system (Invitrogen); co-transfected with pcDNA3.1 aequorin; assay: Luminescence readout assay for measuring intracellular calcium (aequorin, CHO cells expressing human TRPM8; icilin, L-menthol or cold activation); type: cell-based; details: CHO cells expressing human TRPM8, icilin activation (1 μM), aequorin luminescence; read-out: hTRPM8 IC50
Counter-ions that a name gives are not always drawn.
# maps each entry to its pIC50
Give only the number. pIC50 is defined as minus log10 of concentration in molar units.

Past entries and their recorded results:
>  <compound>
O=C(N[C@]1(c2ccc(OC(F)(F)F)cc2)CCOc2cccnc21)c1cc2nccc(C3CC3)n2n1 [Example 224]

>  <pIC50>
6.94

$$$$
>  <compound>
NC(=O)c1cc(-c2ccc([C@@]3(NC(=O)c4ccc(F)cc4)CCOc4cccnc43)cc2)ccc1Cl [Example 123]

>  <pIC50>
5.45

$$$$
>  <compound>
O=C(N[C@]1(c2ccc(OC(F)(F)F)cc2)CCOc2cccnc21)c1ccc2ccccc2n1 [Example 251, formate]

>  <pIC50>
7.25

$$$$
>  <compound>
O=C(N[C@]1(c2ccc(OC(F)(F)F)cc2)CCOc2cccnc21)c1cc2ccccc2cn1 [Example 248, formate]

>  <pIC50>
7.62

$$$$

Give pIC50 for O=C(N[C@]1(c2ccc(OC(F)(F)F)cc2)CCOc2cccnc21)c1ccsc1 [Example 230, formate]
7.70

Give pIC50 for COC(=O)c1ccn(CC(=O)N[C@]2(c3ccc(OC(F)(F)F)c(F)c3)CCOc3cccnc32)c1 [Example 193]
6.23

Give pIC50 for O=C(N[C@]1(c2ccc(OC(F)(F)F)c(F)c2)CCOc2cccnc21)c1ccc(C(=O)O)c(-c2ccccc2)c1 [Example 290]
7.07

Give pIC50 for Cc1cc(C(=O)N[C@]2(c3ccc(OC(F)(F)F)c(F)c3)CCOc3cccnc32)ccc1C(=O)NC(C)(C)C [Example 297]
7.59

Give pIC50 for O=C(N[C@]1(c2ccc(OC(F)(F)F)c(F)c2)CCOc2cccnc21)c1ccc(-c2noc(=O)[nH]2)cn1 [Example 283]
7.36

Give pIC50 for O=C(N[C@]1(c2ccc(OC(F)(F)F)c(F)c2)CCOc2cccnc21)c1ccc(C(=O)O)c(F)c1 [Example 331]
7.47

---

Molecular target: human TRPM8 (Homo sapiens)
Construct: expressed in transfected cells; host or cells: Chinese hamster ovary (CHO) cells, T-REx tetracycline-inducible expression system (Invitrogen); co-transfected with pcDNA3.1 aequorin
Assay: Luminescence readout assay for measuring intracellular calcium (aequorin, CHO cells expressing human TRPM8; icilin, L-menthol or cold activation)
Assay type: cell-based
Conditions: CHO cells expressing human TRPM8, icilin activation (1 μM), aequorin luminescence; read-out: hTRPM8 IC50
Protocol: Luminescence Readout Assay for Measuring Intracellular Calcium A stable Chinese hamster ovary cell line expressing human TRPM8 was generated using tetracycline inducible T-REx™ expression system from Invitrogen, Inc. (Carlsbad, Calif.). […] Twenty four hours before the assay, cells were seeded in 96-well plates and TRPM8 expression was induced with 0.5 μg/ml tetracycline. On the day of the assay, culture media was removed and cells were incubated with assay buffer […]
# maps each entry to its pIC50
Give only the number. pIC50 is defined as minus log10 of concentration in molar units.

Past entries and their recorded results:
>  <compound>
CC(C)Cc1cc(C(=O)N[C@]2(c3ccc(OC(F)(F)F)c(F)c3)CCOc3cccnc32)ccc1C(=O)O

>  <test.target>
human TRPM8 (Homo sapiens)

>  <endpoint.value>
8.15

$$$$
>  <compound>
O=C(N[C@]1(c2ccc(OC(F)(F)F)c(F)c2)CCOc2cccnc21)c1ccc(C(=O)O)c(C2CC2)c1

>  <test.target>
human TRPM8 (Homo sapiens)

>  <endpoint.value>
7.92

$$$$

For human TRPM8 (Homo sapiens), give pIC50 of the listed compound: COC(=O)c1cccc(C(=O)N[C@]2(c3ccc(OC(F)(F)F)c(F)c3)CCOc3cccnc32)c1
7.59

For human TRPM8 (Homo sapiens), give pIC50 of the listed compound: O=C(N[C@]1(c2ccc(-c3ccc(CO)cc3)cc2)CCOc2cccnc21)c1ccc(F)cc1
5.79

---

molecular target: human TRPM8 (Homo sapiens, UniProt Q7Z2W7); construct: expressed in transfected cells; host or cells: Chinese hamster ovary (CHO) cells, T-REx tetracycline-inducible expression system (Invitrogen); co-transfected with pcDNA3.1 aequorin; experiment: Luminescence readout assay for measuring intracellular calcium (aequorin, CHO cells expressing human TRPM8; icilin, L-menthol or cold activation); assay type: cell-based; conditions: CHO cells expressing human TRPM8, icilin activation (1 μM), aequorin luminescence; read-out: hTRPM8 IC50
// NB: equality with 50 nM counts as -1; only IC50 strictly below is 1

Worked examples follow.
>  <compound>
O=C(O)C1CCN(C(=O)N[C@]2(c3ccc(OC(F)(F)F)c(F)c3)CCOc3cccnc32)CC1

>  <category>
-1

$$$$
>  <compound>
COc1ccc(C(=O)N[C@]2(c3ccc(OC(F)(F)F)c(F)c3)CCOc3cccnc32)cc1C(=O)O

>  <category>
-1

$$$$

Bench note: check whether O=C(O)c1ccc(S(=O)(=O)N[C@]2(c3ccc(OC(F)(F)F)c(F)c3)CCOc3cccnc32)cc1 shows IC50 below 50 nM
-1

Bench note: check whether COC(=O)c1ccc(NC(=O)N[C@]2(c3ccc(OC(F)(F)F)c(F)c3)CCOc3cccnc32)nc1 shows IC50 below 50 nM
-1

Bench note: check whether Cc1cc(C(=O)N[C@]2(c3ccc(C(F)(F)F)cc3)CCOc3cccnc32)ccc1C(=O)O shows IC50 below 50 nM
1

Bench note: check whether N#CCc1ccc([C@@]2(NC(=O)c3ccc(F)cc3)CCOc3cccnc32)cc1 shows IC50 below 50 nM
-1

Bench note: check whether CNC(=O)c1ccc(C(=O)N[C@]2(c3ccc(OC(F)(F)F)c(F)c3)CCOc3cccnc32)cn1 shows IC50 below 50 nM
1

Bench note: check whether COC(=O)c1ccc(C(=O)N[C@]2(c3ccc(OC(F)(F)F)cc3F)CCOc3cccnc32)nc1 shows IC50 below 50 nM
-1

---

biological target: human TRPM8 (Homo sapiens); construct: expressed in transfected cells; host or cells: Chinese hamster ovary (CHO) cells, T-REx tetracycline-inducible expression system (Invitrogen); co-transfected with pcDNA3.1 aequorin; assay: Luminescence readout assay for measuring intracellular calcium (aequorin, CHO cells expressing human TRPM8; icilin, L-menthol or cold activation); format: cell-based; details: CHO cells expressing human TRPM8, icilin activation (1 μM), aequorin luminescence; read-out: hTRPM8 IC50
readout.label: IC50 (nM)
Provide the reading as a plain figure in nM.

Past entries and their recorded results:
>  <compound>
O=C(N[C@]1(c2ccc(OC(F)(F)F)c(F)c2)CCOc2cccnc21)c1ncco1

>  <endpoint.value>
134

$$$$
>  <compound>
O=C(N[C@]1(c2ccc(OC(F)(F)F)c(F)c2)CCOc2cccnc21)c1ccc(C(=O)O)c(NC2CC2)c1

>  <endpoint.value>
4

$$$$
>  <compound>
O=C(N[C@]1(c2ccc(OC(F)(F)F)c(F)c2)CCOc2cccnc21)c1ccc(F)cn1

>  <endpoint.value>
22

$$$$

For human TRPM8 (Homo sapiens), give IC50 of the listed compound: O=C(N[C@]1(c2cccc(OC(F)(F)F)c2)CCOc2cccnc21)c1ccccc1 (single isomer, unassigned)
60
